Cited source for all entries: the supplement of paper PMC3545927

biological target: furin, P09958; experiment: furin cleavage Z-score vs untreated control; higher = more cleavage, active = 3.5 or more, inactive = 1 or less, 8 variable residues between constant flanks; conditions: 15 min;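 further: purified furin at 1:10 enzyme:substrate in 50 mM HEPES pH 7.5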
Sequence (P09958 whole entry): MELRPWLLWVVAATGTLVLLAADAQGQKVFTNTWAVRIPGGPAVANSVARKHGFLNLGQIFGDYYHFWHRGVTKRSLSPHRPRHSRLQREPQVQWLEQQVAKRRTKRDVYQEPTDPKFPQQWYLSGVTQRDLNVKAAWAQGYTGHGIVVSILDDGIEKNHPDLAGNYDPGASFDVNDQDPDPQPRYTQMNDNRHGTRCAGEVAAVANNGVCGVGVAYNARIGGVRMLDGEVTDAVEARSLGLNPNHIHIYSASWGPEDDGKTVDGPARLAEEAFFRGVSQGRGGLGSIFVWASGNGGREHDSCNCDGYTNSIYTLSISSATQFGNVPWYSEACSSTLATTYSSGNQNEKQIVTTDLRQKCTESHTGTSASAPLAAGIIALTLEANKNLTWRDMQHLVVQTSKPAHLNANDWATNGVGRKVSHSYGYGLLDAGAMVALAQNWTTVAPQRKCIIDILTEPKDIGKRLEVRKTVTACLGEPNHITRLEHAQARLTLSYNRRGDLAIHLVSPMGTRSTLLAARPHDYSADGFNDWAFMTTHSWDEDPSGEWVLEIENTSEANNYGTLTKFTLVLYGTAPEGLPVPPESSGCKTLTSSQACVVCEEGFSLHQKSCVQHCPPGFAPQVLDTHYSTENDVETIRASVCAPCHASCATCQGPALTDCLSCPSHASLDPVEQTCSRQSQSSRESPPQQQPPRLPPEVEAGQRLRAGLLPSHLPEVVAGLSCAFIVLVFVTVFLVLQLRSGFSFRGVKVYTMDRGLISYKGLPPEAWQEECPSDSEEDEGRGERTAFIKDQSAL
The list shows a part of the results. The true hit rate is not given.
Reported Metric: furin cleavage Z-score

INSERT INTO measurements (residue_codes, observed_value) VALUES
  ('CAHTPCSGSWAGNASASA [HC1835]', -0.656),
  ('CARRARASDRAGNASASA [FS-2176]', 2.19),
  ('CALVCCSMSYAGNASASA [HC1985]', -0.242),
  ('CARQKKTTGGAGNASASA [FS-3034]', -0.895),
  ('CARIRRNAKGAGNASASA [FS-1723]', 9.21),
  ('CARRARQARRAGNASASA [FS-1071]', 0.798),
  ('CAEVVTSTCVAGNASASA [HC2240]', -0.394);
